test: soluble on expression in E. coli; label from the status in PepcDB or PDB records
measure: soluble on expression in E. coli

These solved cases illustrate the format of a correct answer.
- ordered-residues: "MGHHHHHHSHMSGTEEAILGGRDSHPAAGGGSVLCFGQCQYTAEEYQAIQKALRQRLGPEYISSRMAGGGQKVCYIEGHRVINLANEMFGYNGWAHSITQQNVDFVDLNNGKFYVGVCAFVRVQLKDGSYHEDVGYGVSEGLKSKALSLEKARKEAVTDGLKRALRLPLLGVSGRILYSLFSVHSVMCAGGLPTPTASAQTAPSSPCSSAVLRYAQEFWECTWKLYSGQRLPEITK"
  recorded-value: "not soluble"
- ordered-residues: "DYNGQAKCMLEKVGNWNFDIFLFDRLTNGNSLVSLTFHLFSLHGLIEYFHLDMMKLRRFLVMIQEDYHSQNPYHNAVHAADVTQAMHCYLKEPKLANSVTPWDILLSLIAAATHDLDHPGVNQPFLIKTNHYLATLYKNTSVLENHHWRSAVGLLRESGLFSHLPLESRQQMETQIGALILATDISRQNEYLSLFRSHLDRGDLCLEDTRHRHLVLQMALKCADICNPCRTWELSKQWSEKVTEEFFHQGDIEKKYHLGVSPLCDRHTESIANIQIGFMTYLVEPLFTEWARFSNTRLSQTMLGHVGLNKASWKGLQR"
  recorded-value: "soluble"
- ordered-residues: "MHHHHHHSSGVDLGTENLYFQSMNLPEHWTDMNHQLFCMVQLEPGQSEYNTIKDKFTRTCSSYAIEKIERIQNAFLWQSYQVKKRQMDIKNDHKNNERLLFHGTDADSVPYVNQHGFNRSCAGKNAVSYGKGTYFAVDASYSAKDTYSKPDSNGRKHMYVVRVLTGVFTKGRAGLVTPPPKNPHNPTDLFDSVTNNTRSPKLFVVFFDNQAYPEYLITFTA"
  recorded-value: "soluble"
- ordered-residues: "MGSDKIHHHHHHMNEKTSVSSDRRDFWDGRAREFSEHAASTGYPRAFLRILKPRKSWTVLDMACGGGTIAIPLANRVKFITAVDFSMRMLEIVEQRCLAGKITNVKTLQGRWEDDWDDLGIGVHDVAIASRSLLSETAMDSIAKLNRAATKAVYISVAVGSGPFDWRLLEAADRERNTRPDYIFYYNLLYEMGIPANVSFIPESYRNSWESHEEAFEDQLWMFQGMTGEEEEKVRAYLREHLVWVKGHWQLPYSRNYYWAVLYWTKDREIGS"
  recorded-value: "not soluble"
- ordered-residues: "MSSERQLAGRIVVPGEPLPEEVEASPPYVIDYKGVKRATVVGLLREKGDGGGRAFVKLKEIYVPQAGDVVIGLIQSVGIMNWFVDINSPYVAVLSVQDFLGRPFNPAVDDMQSLLKVGDYIKAKVVAFDKTRSPLLTVQGEGLGRIVRGKIVEISPAKVPRVIGRKMSMLKTLEEKTECKIFVARNGRIHLECPNEDLEAIAVMAIKIIDEEAYTSGLTKRIIKFIEEERRIREV"
  recorded-value: "soluble"

Ask: # soluble on expression in E. coli lookup, item AVSFIGSTENDVGPSQGSYSSTHAMDNLPFVYNTGYNIGYQNANVWRISGGFCVGLDGKVDLPVVGSLDGQSIYGLTEEVGLLIWMGDTNYSRGTAMSGNSWENVFSGWCVGNYVSTQGLSVHVRPVILKRNSSAQYSVQKTSIGSIRMRPYNGSSAGSVQTTVNFSLNPFTLNDTVT
Reply: soluble

Ask: Another sequence: MGSDKIHHHHHHMIQVLNLTTPETIKNYLHEALGKIEPFEQCILLDYPDHANIGDNLIWLGELLYLHNTRQSQITYNASVENFSVQEMDKCKSSCEIPIFLHGGGNLGDLWLKFQNFREYIISEYKENPIIIFPQSIYFQEEDNLIKAARIFNSHPNLTIFVRDNYSYQLATNYFSNCRIIKSPDAAFQLVNTPGIAAAYQNKSSILYHFRNDKELNLNQAGSPHTLDLPNLIVEDWASYKYESDSYKELPHNAVIQSFARVFHGWEQGKLFPDEWITRQIWKYFHPYTTAFSQSYNPESHRKAWSYMYQGVYQFKQHRLIITNRLHGHILSTLMGIPHIFLPNSYHKNEAFYEAWTYQIPFCRFVKDPEKIADTVRELIEISEIAKN
Reply: not soluble

Ask: Another sequence: MGSDKIHHHHHHMSQTLLPPGWVEKLCDPYAVLGISVIADDRQIFKRYHTLAKLLHPDRHAKNCNPDQKLATAIFSHLINPAYQQLKHRQKRLIAIAMLRSDARVSEQKPLSSQSAIAQEIMKMSTPEAELFYEEAIACYAEAQYKSLDQFYQVTQQITILNLVYLRLHKPDLFLPQKAVAIIPEVEVNPVELTLTDVKPVLTNYAQRHYQRAIEYVRLGKWVIAVQELRDAIKLEPNNSDYYALLGLVHLKQKFMGMARVYICQALKLNPQNSLALKYAPELKIKLGENTNPKSMAKAVSIAALLSRFTQRKGSQVKC
Reply: not soluble

Ask: Another sequence: GMKRAVVVFSGGQDSTTCLIQALQDYDDVHCITFDYGQRHRAEIEVAQELSQKLGAAAHKVLDVGLLNELATSSLTRDSIPVPDYDANAQGIPNTFVPGRNILFLTLASIYAYQVGAEAVITGVCETDFSGYPDCRDEFVKALNQAIVLGIARDIRFETPLMWLNKAETWALADYYQQLDTVRYHTLTCYNGIKGDGCGQCAACHLRANGLAQYQKDAATVMASLKQKVGLR
Reply: soluble

Ask: Another sequence: SADCILVNSQFTAAVFKETFKSLSHIDPDVLYPSLNVTSFDSVVPEKLDDLVPKGKKFLLLSINRYERKKNLTLALEALVQLRGRLTSQDWERVHLIVAGGYDERVLENVEHYQELKKMVQQSDLGQYVTFLRSFSDKQKISLLHSCTCVLYTPSNEHFGIVPLEAMYMQCPVIAVNSGGPLESIDHSVTGFLCEPDPVHFSEAIEKFIREPSLKATMGLAGRARVKEKFSPEAFTEQLYRYVTKLLV
Reply: soluble

Ask: Another sequence: IVGGQECKDGECPWQALLINEENEGFCGGTILSEFYILTAAHCLYQAKRFKVRVGDRNTEQEEGGEAVHEVEVVIKHNRFTKETYDFDIAVLRLKTPITFRMNVAPACLPERDWAESTLMTQKTGIVSGFGRTHEKGRQSTRLKMLEVPYVDRNSCKLSSSFIITQNMFCAGYDTKQEDACQGDSGGPHVTRFKDTYFVTGIVSWGEGCARKGKYGIYTKVTAFLKWIDRSMKTRGLPKAKSHAPEVITSSPLK
Reply: soluble

---

assay: soluble on expression in E. coli; label from the status in PepcDB or PDB records
measure: soluble on expression in E. coli

- ordered-residues: "SLGMDEKSVAIVFPHHLLEDHPAAGKTSGFILVEDQLFFGDPVFGLRFHKNKLVLHRASMRYYHDHLKSRGLKAEYIQYSPDPHMGYLRDHLEGYDRVYTLELLDHELEARMKKLSMELGLEITEIEAPFIFRRNLMDGYFRDGRFLLRSFYIRERKRLSILMENSRPAGGKWTFDTENRKRMPPDLQVPAPVKLPENEYVQEAKEYVSEKFPDNPGSMDRFNYP"
  recorded-value: "not soluble"
- ordered-residues: "MAHHHHHHMECGYRNEGKFHQVVLNIKEKIEKHDLSKWKDIVKPEEGPKYDEYFERLLRGGTPEKDSHEEDSNEKHTHETHDLPAEQAEETPPEVCEPPGDEKNKTEFQLNKEFFDKISNKEKFYFLLNIKEMMETSWLLAQKRLEGIKLEEKSKPVNVQDLLNYSQKIADTTCAPPECDNINDKIMHQEYYPNYHFLNFVNVEEIHLSKLFQLQKYSTVCFPPIITIQEGKDNMLAIDITCSTPHATIYYRMNDDPNEQIYNTDDKPQIRKRKKVNVYAWSVKDGHIKSRVSCISKSYKVEEDDSFPLSDNLPNKEQGEQQTGSSKMGVEANAPGKPSQITNVFKNLGFLLSRKKEKTEEPSSNGESSSEG"
  recorded-value: "not soluble"

---

assay: soluble on expression in E. coli; label from the status in PepcDB or PDB records
measure: soluble on expression in E. coli

- ordered-residues: "MGSDKIHHHHHHMENVREILQELMSKRKLDQRFNNVMKSVYSDPEVISFCEEHQDELSKEAIERGAAKLYEFVSERNKIKNNQATFLPGYQPELVLSNHLIDIEYVPTKQTHLLEQERHRKALVKSISMPKLIRHASLEGYYQEPERTDALAKTLAFVNEYLERPQDWHKGLYLTGSFGVGKTYLMGAMGNALADEGYSTTIVHFPSLAVELKNAIGSSNTIQTKIDAIKKAPILVIDDIGADSISSWIRDDVLGVILEYRMQEELPTFFTSNFSMDQLEREHLTVNQRGEAEPLKAKRLMERIKFLSEEVSMTGKNHRQD"
  measure: "soluble on expression in E. coli"
  recorded-value: "not soluble"
- ordered-residues: "MVKVTAACIIIGDEVLNGKVVDTNSTFFAKYCFDHGIQLKEIATIGDDETQIVDTVRRLVKNYDFIISTGGIGPTHDDITYECMAKSFNLPCELDEECKERMRHKSDPEARLDADALKAHYQMATMPKGTNVKNYYVCDDLWVPICSISHKMYILPGIPQLFARMLKAFTPTLKKIYNLDKDPREYVRYFVRTHLTESQISKELKLIQDESTKVSEAIKIGSYPHFGMGFNTVSILGEKKDDSYLKSIVNRVVNNLEGEVISSELENKFSNQES"
  measure: "soluble on expression in E. coli"
  recorded-value: "not soluble"
- ordered-residues: "MSDVAETVVAQEPEVVEPVEEKPTETGSDDVVVIDEKTSEQNGEKTEETQAEATEEKNETEAEEADKDKAVENGEAKDTNGNDRKRVSSAHEEAPVADAEEDAPLTKKSKVEDEVDVAASGDAPAVAAE"
  measure: "soluble on expression in E. coli"
  recorded-value: "soluble"
- ordered-residues: "MGSDKIHHHHHHMKHYQTIIIGAGAAGIGFGSAMQRLGLTNFLIIEKGHIGESFLRWPRTTQFITPSFTTNGFGFPDLNAVIPDTSPAFSFEKEHLSGVEYARYLQLVAAHYNLPIQNETSVLSIDKRDSLFVIKTSKGDFSADYLIMATGEFQNPNTIDIKGADLGMHYGQVDNFHIKSDNPFIIIGGNESACDALTHLVYLGNQVELYTDTFGRKESNPDPSISLSPLTKERLKHIQDHKKEYYSISEGKKAIEIKQIGKQYQVTFDDGSTAESFHKPILSTGFLNTCHLIDGIALFEYDKNQLPIVTEDDESTIVNNCFLIGPSLRQRDTIFCYIYKFRQRFVPVINHIAQREGIILDEDTLEFFKENQMYLDNLACCDVNCDC"
  measure: "soluble on expression in E. coli"
  recorded-value: "not soluble"
- ordered-residues: "MGHHHHHHSHMQNADDFIKFLELEQHVEGGFYRSSYRSETAFDPSRQLWSSIYFLLRTGEVSHFHRLTADEMWYFHAGQSLTIYMISPEGELTTAQLGLDLAAGERPQFLVPKGCIFGSAMNQDGFSLVGCMVSPGFTFDDFELFSQEALLAMYPQHKAVVQKLSRPEVN"
  measure: "soluble on expression in E. coli"
  recorded-value: "soluble"

// moving on: another record for soluble on expression in E. coli
Ask: # soluble on expression in E. coli lookup, item MISLEDASLTKKGIVKLSSATDSDSEALAATPKAVKTVMGEVRTKAPLDSPAFTGTPTTPTPPGDAKGLQTTNAEFVRKLIAALVGSVLEPLDTLQELADALGNDPNFATTVLNKLAGKQPLDETLTALSGKSVDGLIEYVGLRETISRAADALQKSQNGGDIPDKDLFVRRIGAARAFDGAVIIGCDDNPWTTAEFIVWLESQGAFNHPYWMCRGSWSYAYNKIITDTGCGNICLAGAVIEVMGVRGAMTIRVTTSHSVSGW
Reply: not soluble
